# system: human alpha-7 nAChR (Homo sapiens, UniProt P36544)
# Construct: expressed in transfected cells; host or cells: Xenopus laevis oocytes (cRNA injection)
# Sequence (P36544 23-502): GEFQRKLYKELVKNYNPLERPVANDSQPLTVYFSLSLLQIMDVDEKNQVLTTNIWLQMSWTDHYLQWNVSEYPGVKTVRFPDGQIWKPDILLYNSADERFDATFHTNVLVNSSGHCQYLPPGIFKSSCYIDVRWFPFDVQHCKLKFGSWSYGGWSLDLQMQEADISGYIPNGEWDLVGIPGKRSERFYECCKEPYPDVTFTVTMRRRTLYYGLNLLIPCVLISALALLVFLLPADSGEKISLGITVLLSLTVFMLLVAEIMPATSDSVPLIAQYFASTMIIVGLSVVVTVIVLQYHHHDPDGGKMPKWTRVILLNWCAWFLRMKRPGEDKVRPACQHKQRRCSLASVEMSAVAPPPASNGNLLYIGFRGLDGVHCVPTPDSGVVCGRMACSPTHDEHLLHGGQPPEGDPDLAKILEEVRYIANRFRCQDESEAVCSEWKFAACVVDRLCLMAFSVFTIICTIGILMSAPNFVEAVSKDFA
# test-description: Two-electrode voltage clamp of alpha-7 nAChR expressed in Xenopus oocytes (net charge)
# Format: cell-based
# stated-conditions: compound together with choline or ACh; includes PAM and ago-PAM activity; area under the curve of current vs. time
observed-property: Charge +C

compound: NS(=O)(=O)c1ccc([C@H]2Nc3ccc(Br)cc3[C@H]3C=CC[C@H]32)cc1 (stereo in doubt)
Charge +C: 8.4

A. [N-]=[N+]=Nc1c(F)c(F)c([C@H]2Nc3ccc(S(N)(=O)=O)cc3[C@H]3C=CC[C@H]32)c(F)c1F
B. NS(=O)(=O)c1ccc2c(c1)[C@H]1C=CC[C@H]1[C@@H](c1ccc(I)cc1)N2
Lower Charge +C: A or B ? // output: label of the selected item
A
(A: 5.5, B: 684)

a. Nc1ccc([C@H]2Nc3ccc(S(N)(=O)=O)cc3[C@H]3C=CC[C@H]32)cc1 (stereo in doubt)
b. NS(=O)(=O)c1ccc2c(c1)[C@H]1C=CC[C@H]1[C@@H](Cc1ccccc1)N2 (stereo in doubt)
Lower Charge +C: a or b ? // output: label of the selected item
b
(b: 76, a: 250)

P. NS(=O)(=O)c1ccc2c(c1)[C@H]1C=CC[C@H]1[C@@H](c1csc3ccccc13)N2 (stereo in doubt)
Q. NS(=O)(=O)c1ccc2c(c1)[C@H]1CCC[C@H]1[C@@H](c1ccc(Br)cc1)N2 (stereo in doubt)
R. NS(=O)(=O)c1ccc2c(c1)[C@H]1C=CC[C@H]1[C@@H](c1ccsc1)N2 (stereo in doubt)
S. NS(=O)(=O)c1ccc2c(c1)[C@H]1C=CC[C@H]1[C@@H](c1ccc(Br)nc1)N2
T. [N-]=[N+]=Nc1ccc([C@H]2Nc3ccc(S(N)(=O)=O)cc3[C@H]3C=CC[C@H]32)cc1
Order the records by Charge +C, with each subsequent value no larger than the one before. Give your ranking as a list of the labels in the requested order.
T, R, S, P, Q
(T: 764, R: 500, S: 348, P: 145, Q: 93)

P. NS(=O)(=O)c1ccc2c(c1)[C@H]1C=CC[C@H]1[C@@H](c1ccc(Br)c3ccccc13)N2 (stereo in doubt)
Q. NS(=O)(=O)c1ccc2c(c1)[C@H]1C=CC[C@H]1[C@@H](c1csc(Br)n1)N2 (stereo in doubt)
Lower Charge +C: P or Q ? // output: label of the selected item
P
(P: 76, Q: 166)

* * *

# system: human alpha-7 nAChR (Homo sapiens, UniProt P36544)
# Construct: expressed in transfected cells; host or cells: Xenopus laevis oocytes (cRNA injection)
# test-description: Two-electrode voltage clamp of alpha-7 nAChR expressed in Xenopus oocytes (net charge)
# Format: cell-based
# stated-conditions: compound alone acting as an allosteric agonist; area under the curve of current vs. time
observed-property: Charge Alone

Sample records with Charge Alone:
molecule: NS(=O)(=O)c1ccc2c(c1)[C@H]1C=CC[C@H]1[C@@H](c1ccc(Br)s1)N2 (stereo in doubt)
Charge Alone: 48

molecule: NS(=O)(=O)c1ccc2c(c1)[C@H]1C=CC[C@H]1[C@@H](c1ccc([N+](=O)[O-])cc1)N2 (stereo in doubt)
Charge Alone: 43

molecule: CCN(CC)S(=O)(=O)c1ccc2c(c1)[C@H]1C=CC[C@H]1[C@@H](c1ccc(Br)cc1)N2 (stereo in doubt)
Charge Alone: Inactive

molecule: CN(C)S(=O)(=O)c1ccc2c(c1)[C@H]1C=CC[C@H]1[C@@H](c1ccc(Br)cc1)N2 (stereo in doubt)
Charge Alone: Inactive

molecule: CCNS(=O)(=O)c1ccc2c(c1)[C@H]1C=CC[C@H]1[C@@H](c1ccc(Br)cc1)N2
Charge Alone: Inactive

molecule: NS(=O)(=O)c1ccc2c(c1)[C@H]1OCC[C@H]1[C@@H](c1ccc(Br)cc1)N2 (stereo in doubt)
Charge Alone: Inactive

# value lookup — system human alpha-7 nAChR (Homo sapiens, UniProt P36544), readout Charge Alone, item CCCCNS(=O)(=O)c1ccc2c(c1)[C@H]1C=CC[C@H]1[C@@H](c1ccc(Br)cc1)N2 (stereo in doubt)
Inactive

# value lookup — system human alpha-7 nAChR (Homo sapiens, UniProt P36544), readout Charge Alone, item "O=C(O)c1ccc2c(c1)[C@H]1C=CC[C@H]1[C@@H](c1ccc(Cl)cc1Cl)N2"
Inactive

# value lookup — system human alpha-7 nAChR (Homo sapiens, UniProt P36544), readout Charge Alone, item "CCNS(=O)(=O)c1ccc2c(c1)[C@@H]1C=CC[C@@H]1[C@@H](c1ccc(Br)cc1)N2"
Inactive

# value lookup — system human alpha-7 nAChR (Homo sapiens, UniProt P36544), readout Charge Alone, item CS(=O)(=O)Nc1ccc2c(c1)[C@H]1C=CC[C@H]1[C@@H](c1ccc(Br)cc1)N2 (stereo in doubt)
Inactive

* * *

# system: human alpha-7 nAChR (Homo sapiens, UniProt P36544)
# Construct: expressed in transfected cells; host or cells: Xenopus laevis oocytes (cRNA injection)
# test-description: Two-electrode voltage clamp of alpha-7 nAChR expressed in Xenopus oocytes (net charge)
# Format: cell-based
# stated-conditions: compound alone acting as an allosteric agonist; area under the curve of current vs. time
observed-property: Charge Alone

compound: NS(=O)(=O)c1ccc2c(c1)[C@H]1C=CC[C@H]1[C@@H](c1ccc(Br)nc1)N2
observed-property: Charge Alone
result: 29

compound: N#Cc1ccc([C@@H]2Nc3ccc(S(N)(=O)=O)cc3[C@H]3C=CC[C@H]32)cc1 (stereo in doubt)
observed-property: Charge Alone
result: Inactive

compound: CCCNS(=O)(=O)c1ccc2c(c1)[C@H]1C=CC[C@H]1[C@@H](c1ccc(Br)cc1)N2 (stereo in doubt)
observed-property: Charge Alone
result: Inactive

compound: C=C(C)CNS(=O)(=O)c1ccc2c(c1)[C@H]1C=CC[C@H]1[C@@H](c1ccc(Br)cc1)N2 (stereo in doubt)
observed-property: Charge Alone
result: Inactive

* * *

# system: human alpha-7 nAChR (Homo sapiens, UniProt P36544)
# Construct: expressed in transfected cells; host or cells: Xenopus laevis oocytes (cRNA injection)
# test-description: Two-electrode voltage clamp of alpha-7 nAChR expressed in Xenopus oocytes (net charge)
# Assay type: cell-based
# stated-conditions: compound alone acting as an allosteric agonist; area under the curve of current vs. time
# Experimental: The human alpha-7 nAChR receptor clone was obtained from Dr. Jon Lindstrom {University of Pennsylvania, Philadelphia, Pa.), aid the RIC-3 clone from Dr. Millet Treinin (Hebrew University, Jerusalem, Israel) for the purpose of co-injection with a7 to improve the level and speed of receptor expression (Halevi et al., 2003). After linearization and purification of cloned cDNA's, RNA, transcripts were prepared rising the appropriate mMessage mMachine kit tiom Ambion (Austin, Tex.). […]
observed-property: Charge Alone

compound: [N-]=[N+]=Nc1ccc([C@H]2Nc3ccc(S(N)(=O)=O)cc3[C@H]3C=CC[C@H]32)cc1 [Compound 48]
result: 61
//
compound: CC(C)NS(=O)(=O)c1ccc2c(c1)[C@H]1C=CC[C@H]1[C@@H](c1ccc(Br)cc1)N2 (stereo in doubt)
result: Inactive
//
compound: CNS(=O)(=O)c1ccc2c(c1)[C@H]1C=CC[C@H]1[C@@H](c1ccc(Br)cc1)N2 (stereo in doubt)
result: Inactive
//
compound: O=S(=O)(Nc1ccccc1)c1ccc2c(c1)[C@H]1C=CC[C@H]1[C@@H](c1ccc(Br)cc1)N2 (stereo in doubt)
result: Inactive

* * *

# system: human alpha-7 nAChR (Homo sapiens, UniProt P36544)
# Construct: expressed in transfected cells; host or cells: Xenopus laevis oocytes (cRNA injection)
# test-description: Two-electrode voltage clamp of alpha-7 nAChR expressed in Xenopus oocytes (net charge)
# Format: cell-based
# stated-conditions: compound alone acting as an allosteric agonist; area under the curve of current vs. time
observed-property: Charge Alone

molecule: NS(=O)(=O)c1ccc2c(c1)[C@H]1C=CC[C@H]1[C@@H](c1scc(Br)c1Br)N2 (stereo in doubt)
observed-property: Charge Alone
numeric-value: 18

1. NS(=O)(=O)c1ccc2c(c1)[C@H]1C=CC[C@H]1[C@@H](c1ccc(Br)cn1)N2 (stereo in doubt)
2. NS(=O)(=O)c1ccc2c(c1)[C@H]1C=CC[C@H]1[C@@H](c1ccc(C3(C(F)(F)F)N=N3)cc1)N2
Lower Charge Alone: 1 or 2 ? // output: label of the selected item
1
(1: 7, 2: 14)

* * *

# system: human alpha-7 nAChR (Homo sapiens)
# Construct: expressed in transfected cells; host or cells: Xenopus laevis oocytes (cRNA injection)
# test-description: Two-electrode voltage clamp of alpha-7 nAChR expressed in Xenopus oocytes (net charge)
# Type: cell-based
# stated-conditions: compound together with choline or ACh; includes PAM and ago-PAM activity; area under the curve of current vs. time
observed-property: Charge +C

Sample records with Charge +C:
molecule: NS(=O)(=O)c1ccc2c(c1)[C@H]1C=CC[C@H]1[C@@H](c1c(F)c(F)c(F)c(F)c1F)N2 (stereo in doubt)
system: human alpha-7 nAChR (Homo sapiens)
Charge +C: 47
--
molecule: NS(=O)(=O)c1ccc2c(c1)[C@H]1C=CC[C@H]1[C@@H](c1cc(Br)cs1)N2 (stereo in doubt)
system: human alpha-7 nAChR (Homo sapiens)
Charge +C: 163

A. NS(=O)(=O)c1ccc2c(c1)[C@H]1C=CC[C@H]1[C@@H](c1ccc(Br)s1)N2 (stereo in doubt)
B. NS(=O)(=O)c1ccc2c(c1)[C@H]1C=CC[C@H]1[C@@H](c1ccc(Br)cn1)N2 (stereo in doubt)
Just curious, which one has the larger Charge +C reading, A or B ? // output: label of the selected item
A
